Task for the reader: assign each of the following sequences its reported PBM binding z-score.
System: PXR homodimer (NR concentration 270 nM)
Experiment: PBM binding z-score (relative to random genomic background probes); higher = stronger binding; sequences stand for … in GC…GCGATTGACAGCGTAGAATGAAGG

Prompt: Query PBM binding z-score for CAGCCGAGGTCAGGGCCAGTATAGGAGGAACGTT
Response: 0.241

Prompt: Supply recorded PBM binding z-score for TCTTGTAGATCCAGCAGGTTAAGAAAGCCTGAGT here.
Response: 0.226

Prompt: Identify measured PBM binding z-score associated with GATACAGGGTCAGCTAGAGGCCAGAGAATGGAAA
Response: 0.000802

Prompt: Give PBM binding z-score for the following sequence: CCTACTGGGCCAAGGTCATTGAACAGTCAAAGCA
Response: 0.99

Prompt: Provide one value: measured PBM binding z-score of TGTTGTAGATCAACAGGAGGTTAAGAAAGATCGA
Response: -0.0905

Prompt: Identify PBM binding z-score associated with the sequence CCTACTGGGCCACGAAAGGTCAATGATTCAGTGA
Response: 0.206

Prompt: Please supply the value of reported PBM binding z-score for the item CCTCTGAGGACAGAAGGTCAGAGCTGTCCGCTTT
Response: -0.313

Prompt: Tell me its PBM binding z-score given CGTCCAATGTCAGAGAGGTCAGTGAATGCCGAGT as the entry.
Response: 2.28

Prompt: Read off the recorded PBM binding z-score for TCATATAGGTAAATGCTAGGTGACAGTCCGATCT
Response: 0.133

Prompt: Quick one: give measured PBM binding z-score for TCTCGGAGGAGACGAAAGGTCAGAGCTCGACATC
Response: -0.0245

Prompt: Please indicate PBM binding z-score recorded for ATTGAAAGGTCGAGGTGAGTATAGAGAAAGGGAA
Response: 0.738

Prompt: Provide only the value of recorded PBM binding z-score for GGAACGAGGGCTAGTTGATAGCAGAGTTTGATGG
Response: -0.283

Prompt: Look up and state reported PBM binding z-score for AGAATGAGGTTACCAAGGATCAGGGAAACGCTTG
Response: 0.0221

Prompt: Supply reported PBM binding z-score belonging to this sequence: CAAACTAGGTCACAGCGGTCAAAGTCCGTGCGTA
Response: 1.36

Prompt: Report PBM binding z-score, nothing else, for this sequence: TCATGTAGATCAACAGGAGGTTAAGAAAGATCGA
Response: -0.17

Prompt: Entry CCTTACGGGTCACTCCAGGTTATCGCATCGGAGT needs its PBM binding z-score filled in; supply it.
Response: 0.118

All figures here come from the supplement of paper PMC6555819.
